targetOfAssay: Jun bZIP R270A;Fos bZIP R144A (human;human, UniProt P05412;P01100 252-315;137-200, R270A|R144A)
Sequence (P05412 252-315 R270A, chain 1 of 2): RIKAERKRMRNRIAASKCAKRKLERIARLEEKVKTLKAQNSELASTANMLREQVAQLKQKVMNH
Sequence (P01100 137-200 R144A, chain 2 of 2): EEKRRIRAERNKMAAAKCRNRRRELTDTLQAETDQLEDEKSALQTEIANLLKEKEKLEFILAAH
protocolText: ITC
parameter: Kd
Remember to quote the unit after the number.

Form field: reported Kd of TRE duplex 15-mer (dsDNA) DNA 1: CGCGTGACTCACCCC DNA 2: GGGGTGAGTCACGCG
6.7 µM
